target: RORγ ligand binding domain (LBD) (Homo sapiens)
Construct: made in house; host or cells: E. coli BL-21 (BL3), vector pDEST15
Sequence (P51449 269-508 limits assumed): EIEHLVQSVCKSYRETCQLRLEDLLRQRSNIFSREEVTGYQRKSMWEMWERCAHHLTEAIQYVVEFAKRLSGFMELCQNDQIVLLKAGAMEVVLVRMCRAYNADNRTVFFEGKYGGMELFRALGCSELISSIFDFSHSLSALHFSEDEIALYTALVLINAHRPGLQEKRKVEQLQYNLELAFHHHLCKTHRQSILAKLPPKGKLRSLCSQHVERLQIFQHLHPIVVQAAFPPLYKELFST
method.summary: TR-FRET Activity Assay (ligand sensing, RORγ-LBD / coactivator peptide interaction, LANCE)
Format: biochemical
experimental.conditions: first value of the cell FRET/FF/REN; TR-FRET activity assay; read-out: pIC50 (FRET) (converted)
parameter: IC50 (nM)

- COC(=O)C(C)(C)CCNC(=O)c1cc(-c2cc(C(C)(C)C)cc(C3(C)CC3)c2)n(CC2CCCCC2)c1F: 200

A = Cc1c(C(=O)NC2COC2)cc(-c2cc(C(C)(C)C)cc(C(C)(C)C)c2)n1S(=O)(=O)N1CCC(C)CC1
B = Cc1c(C(=O)N[C@H]2C[C@H](C(=O)O)C2)cc(-c2ccc(S(=O)(=O)NC(C)(C)C)c(C(C)(C)C)c2)n1CC1CCCCC1
input: Select the item with the higher value of IC50 from the options A and B listed. Reply briefly: the label of your chosen item.
output: B

A = CCN(C(C)(C)C)S(=O)(=O)c1ccc(-c2cc(C(=O)NC3COC3)c(C)n2CC2CCCCC2)cc1C(C)(C)C
B = Cc1c(S(=O)(=O)NC(C)(C)C)ccc(-c2cc(C(=O)NCCC(C)(C)C(=O)O)c(C)n2CC2CCCCC2)c1OC(F)F
C = Cc1c(S(=O)(=O)NC(C)(C)C)ccc(-c2cc(C(=O)NC3CCOCC3)c(C)n2CC2CCCCC2)c1OC(F)F
input: Ordering criterion: IC50; begin with the maximum. Give me the labels in the order the question wants.
output: B, C, A
(B: 1260 nM, C: 631 nM, A: 251 nM)

a = Cc1c(C(=O)NC2CCOCC2)cc(-c2cc(S(=O)(=O)N3CCCCC3)c3ccccn23)n1CC1CCCCC1
b = Cc1c(C(N)=O)cc(-c2ccc(C(O)(C(F)(F)F)C(F)(F)F)cc2)n1CC1CCCCC1
input: Exercise: compare a and b ; which one has the greater IC50? API: response body contains the label of the selected item.
output: a
(a: 3160 nM, b: 1000 nM)

A = Cc1c(C(=O)N2CC(C(=O)O)C2)cc(-c2cc(C(C)(C)C)c3c(c2)C2(CCO3)CC2)n1CC1CCCCC1
B = Cc1c(C(=O)N[C@H]2CC[C@H](C(=O)O)CC2)cc(-c2cc(C(C)(C)C)c3c(c2)C2(CCO3)CC2)n1CC1CCCCC1
input: Which is greater in IC50, the first item A or the second item B ? Lab note: record the label of whichever item you select.
output: A
(A: 1580 nM, B: 794 nM)

Source: patent US9815851B2
